Where do these numbers come from? They come from ChEMBL document CHEMBL3526063.

# assay.comment: Apparent permeability from apical to basolateral side in MDCK2 cells at 10 uM after 1 hr by LC-MS/MS analysis
# Format: ADME, cell-based, Canis lupus familiaris, MDCK-II
# condition.description: dog, MDCK
readout.type: Papp A→B at 1 h, 10 µM (×10⁻⁶ cm/s)
API: value field is a number in ×10⁻⁶ cm/s; no unit string.

Please give the measured Papp A→B at 1 h, 10 µM for this compound: COc1ccc(S(=O)(=O)Nc2nc(-c3cccc([N+](=O)[O-])c3)cs2)cc1OC
17

---

# assay.comment: Cmax in C57BL/6N mouse at 0.05 mg/kg, po administered via gavage by LC-MS/MS analysis
# Format: ADME, organism-based
# Parameters: dose 0.05 mg/kg, route oral
# condition.description: in vivo
readout.type: Cmax (nM)
API: value field is a number in nM; no unit string.

Please give the measured Cmax for this compound: COc1ccc(S(=O)(=O)Nc2nc(-c3cccc([N+](=O)[O-])c3)cs2)cc1OC
550
